assay: Novel Modifiers of Survival Motor Neuron (SMN) Protein: Gene Identification via Genome-wide siRNA Screen; settings: HEK293T SMN2-luciferase reporter, siRNA knockdown, 72 h; actives lie on both sides;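 also: luminescence tracks full-length SMN protein made from the SMN2 reporter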
The campaign covered roughly 31,000 sequences. About 1,400 (4.5%) were called active.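 The calls were made as follows: active = median seed-adjusted z-score above 1 or below -1; inactive = the rest.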 Many of the other results were omitted from the sample, so actives are more common in it than they were.
Possible outcomes: label 1 (active), label 0 (inactive)

• GGUUCACUUUGAUAGUACUTT against CLCA4 = label 0
• GGGUCAUCUAUAUCCGCAATT against GPR132 = label 0
• GCGUUGGUCGGGAUGAUUATT against P2RY10 = label 0
• AUCUAGACUUCUCUUUAUATT against FHL3 = label 0
• GGACCCUACCAGAACUACATT against SEMA6D = label 0
• ACUUCAUGAUGGAUAUCCATT against KCNN4 = label 0
• ACGAGUACAUCAACGAGUATT against ABCA2 = label 1
• GUAUGAGUGUGACCGGGAATT against MRC2 = label 1
• GGAACAUCGAAAUCGUGUATT against DDX6 = label 1
• CGAUCGACUCGGUGACUUUTT against COL7A1 = label 1
• CCAUCAUCGACACACCCAATT against PRSS27 = label 1

====

assay: Novel Modifiers of Survival Motor Neuron (SMN) Protein: Gene Identification via Genome-wide siRNA Screen; conditions: HEK293T SMN2-luciferase reporter, siRNA knockdown, 72 h; actives lie on both sides;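 also: luminescence tracks full-length SMN protein made from the SMN2 reporter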
Screen size: about 31,000 sequences; about 1,400 (4.5%) were called active.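 How the source made its calls: active means median seed-adjusted z-score above 1 or below -1; inactive means the rest.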 This excerpt belongs to a sample that is enriched for actives.
Possible outcomes: active, inactive

- GGAGUGUGCUGAAGACCUATT against GFER: inactive
- CAGUACUACGUGAAACUGATT against BAT1: active
- CGACUACCCAUACUCUCCATT against CDC34: inactive
- GAACCUCGUUUCGAAAUUUTT against RIOK2: inactive
- GGAUAUGCCUUAGAUUACATT against PRTFDC1: inactive
- GCACUAGCAGAGUCCGAAATT against OPRK1: active
- GGAGGCAUUUGAAGUUCCATT against FARP1: inactive
- GGAAACCAGUGGAUAUUAATT against F11: inactive
- CAACGACCGGAGGUAUAAATT against BPGM: inactive
- GCCUUUGCAGGUAUCAGAATT against LYPLA1: inactive
- GUCUUGUAGAAAUCUCAGATT against RFC3: inactive
- GCCUUCAAUUUUCAUACAATT against ZNF19: inactive
- CGAGUGGACCUACGAGGAATT against ARID3C: active
- GGAUGAGAACAUUAAAACATT against COQ3: inactive
- GAACAUCUCUUGUGGUAUUTT against SLC22A16: inactive
- GACUUGGAGUUUCAGGCAATT against XPC: inactive

====

experiment: Novel Modifiers of Survival Motor Neuron (SMN) Protein: Gene Identification via Genome-wide siRNA Screen; conditions: HEK293T SMN2-luciferase reporter, siRNA knockdown, 72 h; actives lie on both sides;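 also: luminescence tracks full-length SMN protein made from the SMN2 reporter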
Out of some 31,000 sequences screened, about 1,400 (4.5%) were called active. This is one part of a sample in which actives are shown more often than they occur.
READOUT LABEL: median seed-adjusted z-score

• GCUUAUAGCUGCUACAAUUTT against MTMR1 = -0.0204
• GCUUAUGGAUGGAGACCAATT against RNF34 = -0.0857
• CGGCUGUGGUGAACCAGUATT against INHBB = -0.522
• UCAGCUUCAGCUUAACUGATT against TUBA1B = 0.0888
• AGGCCUAUAUUGAAGGAGATT against DGKG = 0.227
• GAUACUUUGCCGUCAAUUATT against CA5B = 0.317
• UGUGGAUCUGCUUACCAAATT against ZFAND2B = 0
• CCACCUUGCAGAAAACCGATT against ITPR3 = -1.28
• UCAUCUUCUUUGACCCAGATT against HNF4A = -0.0274
• GCCUGUGAAUGUCCGAGAATT against AARSD1 = -0.156
• UCUCUACAACAAAAUUUAATT against POLR2L = -1.19
• GGUGACCGGUUACUUGGGATT against FFAR1 = 0.248
• GAGGUACGCUGGUUCUACATT against DDHD1 = 0
• GGGCCGUGCUGAUUGAGAATT against GPX2 = -0.21
• GGAUCGCCCUGUAUGCUGUTT against LRTM2 = 0.465
• CCUGGAAAGUACUCUAGAATT against PGS1 = 1.36
• GGAUGUUUCCUACCUAUAUTT against FOLR1 = -1.31
• CAGGUUAUCGUGUGAAGGATT against TNFRSF14 = 0
